assay: log P determination by HPLC (reversed-phase C18), EEC Directive 79/831 Annex V.A8; type: physicochemical; details: reversed-phase C18 HPLC column; pH 2.3; HPLC, reversed-phase C 18, 43° C., 0.1% aqueous phosphoric acid/acetonitrile; read-out: log P (pH 2.3)
recorded.metric: chromatographic logP

# compound, chromatographic logP
rows = [
    ("COC(COC(=O)CSc1nccc(-c2ccccn2)n1)OC", 2.05),
]

P = CCOC(=O)CSc1nccc(-c2ccc(Cl)cn2)n1
Q = O=C(CSc1nccc(-c2ccccn2)n1)NO
R = O=C(CSc1nccc(-c2ccccn2)n1)OCC(F)F
S = O=C(CSc1nccc(-c2ccccn2)n1)OCCn1cncn1
Order the records, beginning with the lowest chromatographic logP and ending with the highest. Reply with the item labels sorted in the order that was asked for.
Q, S, R, P
(Q: 0.55, S: 1.32, R: 2.25, P: 3.23)

I = CC(NC(=O)CSc1nccc(-c2ccccn2)n1)c1ccc(C(C)(C)C)cc1 (centres unmarked)
II = O=C(CSc1nccc(-c2ccccn2)n1)OCCCl
III = CNC(=O)NCCCOC(=O)CSc1nccc(-c2ccccn2)n1
Hey, quick one: sort these by chromatographic logP, largest value first please. Ranked list of labels, please, in the requested order.
I, II, III

1 = CC(C)OC(=O)C(C)OC(=O)CSc1nccc(-c2ccccn2)n1 (centres unmarked)
2 = CC1CN(C(=O)CSc2nccc(-c3ccccn3)n2)CC(C)O1 (centres unmarked)
API: POST /compare with 1 and 2 ; response names the item with higher chromatographic logP. Response format: the label of the selected entry.
1
(1: 2.95, 2: 1.94)

###

test: log P determination by HPLC (reversed-phase C18), EEC Directive 79/831 Annex V.A8; type: physicochemical; settings: reversed-phase C18 HPLC column; pH 2.3; HPLC, reversed-phase C 18, 43° C., 0.1% aqueous phosphoric acid/acetonitrile; read-out: log P (pH 2.3)
recorded.metric: chromatographic logP

The examples below pair each entry with its known result.
# compound, recorded.measurement
records = [
    ("O=C(CSc1nccc(-c2ccccn2)n1)NCc1cccc(C(F)(F)F)c1 [Example 46]", 2.62),
    ("CN(C)C(=O)SCCOC(=O)CSc1nccc(-c2ccccn2)n1 [Example 178]", 2.2),
    ("CCOC(=O)CSc1nccc(-c2ccc(SC)cn2)n1 [Example 317]", 1.68),
]

1 = CCOC(=O)CN(C)c1nccc(-c2ccccn2)n1 [Example 6]
2 = C=CCOC(=O)CSc1nccc(-c2ccccn2)n1 [Example 18]
Which entry has a larger number for chromatographic logP, 1 or 2 ? Answer = label.
2
(2: 2.4, 1: 1.66)

###

assay: log P determination by HPLC (reversed-phase C18), EEC Directive 79/831 Annex V.A8; format: physicochemical; conditions: reversed-phase C18 HPLC column; pH 2.3; HPLC, reversed-phase C 18, 43° C., 0.1% aqueous phosphoric acid/acetonitrile; read-out: log P (pH 2.3)
recorded.metric: chromatographic logP

Example entries and their recorded answers appear below.
# compound, chromatographic logP
data = [
    ("COC(=O)CSc1nccc(-c2cc(C)ccn2)n1", 1.8),
    ("O=C(CSc1nccc(-c2ccccn2)n1)OCC1CCCCC1", 4),
    ("Cc1ccc(C(C)NC(=O)CSc2nccc(-c3ccccn3)n2)cc1 (stereo not shown)", 2.48),
    ("CC1(C)OCC(CCOC(=O)CSc2nccc(-c3ccccn3)n2)O1 (stereo not shown)", 2.46),
    ("CN(C(=O)CSc1nccc(-c2ccccn2)n1)C1CCCCC1", 2.67),
    ("CCOCCOC(=O)CSc1nccc(-c2ccccn2)n1", 2.34),
    ("Cn1nnc(CSc2nccc(-c3ccccn3)n2)n1", 1.59),
    ("O=C(CSc1nccc(-c2ccccn2)n1)NCc1ccc(SC(F)(F)F)cc1", 2.93),
    ("O=C(CSc1nccc(-c2ccccn2)n1)NCc1ccc(OC(F)(F)F)cc1", 2.76),
    ("CC(C)OC(=O)CSc1nccc(-c2ccccn2)n1", 2.56),
]

A = O=C(CSc1nccc(-c2ccccn2)n1)NCCc1cccc(C(F)(F)F)c1
B = CC(C)CNC(=O)CSc1nccc(-c2ccccn2)n1
C = O=C(CSc1nccc(-c2ccccn2)n1)OCCN1CCCCC1
D = CCOC(=O)c1cc(NC(=O)NCCCOC(=O)CSc2nccc(-c3ccccn3)n2)ccc1Cl
Arrange the 4 compounds from largest to smallest chromatographic logP. # answer = labels listed in requested order
D, A, B, C
(D: 5.37, A: 2.82, B: 1.81, C: 1.04)

A = COC(=O)CSc1nc(-c2ccccn2)cc(C(F)(F)F)n1
B = O=C(CSc1nccc(-c2ccccn2)n1)OC1COC1
// which entry has the larger chromatographic logP value, A or B ? Give the label of your selection.
A

###

test: log P determination by HPLC (reversed-phase C18), EEC Directive 79/831 Annex V.A8; assay type: physicochemical; conditions: reversed-phase C18 HPLC column; pH 2.3; HPLC, reversed-phase C 18, 43° C., 0.1% aqueous phosphoric acid/acetonitrile; read-out: log P (pH 2.3)
recorded.metric: chromatographic logP

# compound, chromatographic logP
records = [
    ("Cc1scnc1CCOC(=O)CSc1nccc(-c2ccccn2)n1 [Example 197]", 1.79),
]

A = CSCC(C)(C)COC(=O)CSc1nccc(-c2ccccn2)n1 [Example 186]
B = CC(CN1CCOCC1)OC(=O)CSc1nccc(-c2ccccn2)n1 (stereo not drawn) [Example 161]
Min chromatographic logP? A | B // respond with label for picked entry
B

###

assay: log P determination by HPLC (reversed-phase C18), EEC Directive 79/831 Annex V.A8; assay type: physicochemical; details: reversed-phase C18 HPLC column; pH 2.3; HPLC, reversed-phase C 18, 43° C., 0.1% aqueous phosphoric acid/acetonitrile; read-out: log P (pH 2.3)
recorded.metric: chromatographic logP

Guide cases for chromatographic logP, answers given:
# compound, recorded.measurement
data = [
    ("COC(=O)/C(O)=C\\c1nccc(-c2ccccn2)n1", 1.89),
    ("CCC(Sc1nccc(-c2ccccn2)n1)C(=O)OC (centres unmarked)", 2.68),
    ("O=C(CSc1nccc(-c2ccccn2)n1)NCc1ccc(C(F)(F)F)cc1", 2.64),
]

a = CCC1(COC(=O)CSc2nccc(-c3ccccn3)n2)CCO1 (centres unmarked)
b = NNC(=O)CSc1nccc(-c2ccccn2)n1
Which record would sort first by descending chromatographic logP, a or b ? Your choice should be expressed through its label.
a
(a: 2.2, b: 0.43)

###

assay: log P determination by HPLC (reversed-phase C18), EEC Directive 79/831 Annex V.A8; assay type: physicochemical; details: reversed-phase C18 HPLC column; pH 2.3; HPLC, reversed-phase C 18, 43° C., 0.1% aqueous phosphoric acid/acetonitrile; read-out: log P (pH 2.3)
recorded.metric: chromatographic logP

Worked examples follow.
# molecule, recorded.metric, recorded.measurement
records = [
    ("N#CCSc1nccc(-c2ccccn2)n1", "chromatographic logP", 1.68),
    ("CN1CCC(COC(=O)CSc2nccc(-c3ccccn3)n2)O1 (stereo not shown) [Example 220]", "chromatographic logP", 1.12),
]

I = CCNC(=S)NCCOC(=O)CSc1nccc(-c2ccccn2)n1 [Example 172]
II = O=C(CSc1nccc(-c2ccccn2)n1)OCCCCOc1ccccc1 [Example 88]
Form: Entry with minimum chromatographic logP (choose one): I / II Lab note: record the label of whichever item you select.
I
(I: 1.79, II: 3.86)

###

test: log P determination by HPLC (reversed-phase C18), EEC Directive 79/831 Annex V.A8; type: physicochemical; conditions: reversed-phase C18 HPLC column; pH 2.3; HPLC, reversed-phase C 18, 43° C., 0.1% aqueous phosphoric acid/acetonitrile; read-out: log P (pH 2.3)
recorded.metric: chromatographic logP

# smiles.record, recorded.measurement
data = [
    ("CS(=O)(=O)c1nccc(-c2ccccn2)n1", 0.99),
    ("COC(=O)CSc1nc(-c2ccccc2)cc(-c2ccccn2)n1", 3.57),
    ("O=C(CSc1nccc(-c2ccccn2)n1)NCc1ccc(Cl)c(Cl)c1", 2.64),
]

1 = CCOC(=O)CSc1nccc(-c2cc(-c3ccccc3)ccn2)n1
2 = O=C(CSc1nccc(-c2ccccn2)n1)OCCc1ccncc1
From the items above, decide which of 1 and 2 has the lower chromatographic logP reading. Provide the label of your selected option as the answer.
2

###

assay: log P determination by HPLC (reversed-phase C18), EEC Directive 79/831 Annex V.A8; assay type: physicochemical; settings: reversed-phase C18 HPLC column; pH 2.3; HPLC, reversed-phase C 18, 43° C., 0.1% aqueous phosphoric acid/acetonitrile; read-out: log P (pH 2.3)
recorded.metric: chromatographic logP

# compound, chromatographic logP
measured = [
    ("COC(=O)C(Sc1nccc(-c2ccccn2)n1)C(C)=O (stereo not shown) [Example 23]", 2.34),
    ("O=C(CSc1nccc(-c2ccccn2)n1)N/N=C/c1ccc([N+](=O)[O-])cc1 [Example 135]", 2.23),
    ("O=C(CSc1nccc(-c2ccccn2)n1)NCCc1ccc(Cl)cc1Cl [Example 41]", 2.83),
    ("O=C(CSc1nccc(-c2ccccn2)n1)OC1CC(F)(F)C1(F)F (stereo not shown) [Example 221]", 3),
]
